# System: NCI-H460 lung
Result category, one only: yes (1) = active, no (0) = inactive

Illustrative cases are given below, each with its answer.
COc1ccc(/C(=C/c2cc(OC)c(OC)c(OC)c2)[N+](=O)[O-])cc1	no (0)
COc1ccc(N(C)c2nc(C)nc3ccccc23)cc1	yes (1)

Task: Recorded test outcome, item O=[N+]([O-])c1ccc(N/N=C\c2cc(Cl)ccc2O)nc1
Result: no (0)

Task: Let us now turn to CCOC(=O)/N=c1\ss/c(=N\C(=S)N(C)C)n1-c1ccccc1
Result: no (0)

Task: What would you report for COc1ccccc1C(=O)/C=C/c1cc2cccc(OC)c2[nH]c1=O ?
Result: yes (1)

Task: Follow-up item: O=C1c2cc3c(cc2-c2c1c1cc(Cl)c(Cl)cc1c(=O)n2CCCn1ccnc1)OCO3
Result: yes (1)

----------
The following compounds are shown together with reported TGI values.
# System: SNB-75 CNS
# MEASUREMENT_NOTES: NCI tumour cell line growth inhibition, 48 h

CCOC(=O)c1ncoc1[C@H]1COC(C)(C)O1	> 100 µM
CCOc1ccc2ccccc2c1NC1=NCCO1	> 100 µM
O=C1C2=C(c3ccccc31)C(c1cccc(Cl)c1)NC(=S)N2 (stereo unspecified)	> 100 µM

Task: Find the recorded TGI belonging to CCOC(=O)c1cnc(SCc2ccc(Cl)c(Cl)c2)nc1N1CC1 and report it.
Result: 6.09 µM

Task: And the next one, O/N=C1\CCc2cc(-c3nc(C4CCNCC4)[nH]c3-c3ccncc3)ccc21 ?
Result: > 25 µM

Task: Next: O=C(O)c1cccc(S(=O)(=O)NN2C(=O)CSC2c2ccccc2)c1 (stereo unspecified)
Result: > 100 µM

Task: Then O=C1C=C(N2CCCC2)C=C(N2CCCC2)C1 ?
Result: > 100 µM

Task: Record: Cc1cc(C)c(S(=O)(=O)N[C@@H](/C=C(\Br)CO)C(C)C)c(C)c1
Result: > 100 µM

Task: Again, but for CCCCCCC(=O)C/C(CCC(=O)N(Cc1ccccc1)Cc1ccccc1)=N\Nc1ccc([N+](=O)[O-])cc1[N+](=O)[O-]
Result: > 100 µM

Task: What about this compound? Nc1nc(Cl)c(C=O)c(NCC2(CO)CC(CCc3ccccc3)C2)n1 (stereo unspecified)
Result: 37.5 µM

Task: Similarly, COC(=O)Nc1nc2ccc(C(=O)c3ccc[nH]3)cc2[nH]1 ?
Result: 1.69 µM

----------
# Test system: EKVX NSCLC
# MEASUREMENT_NOTES: NCI tumour cell line growth inhibition, 48 h; in the data active = GI50 below about 0.43 µM; inactive = the rest
Can you answer with just one of these options? YES for active, NO for inactive

Some solved cases for reference:
COc1ccc(N(C)c2nc(C)nc3ccccc23)cc1	YES
O=C(Nc1n[nH]c2nc(-c3ccco3)c(Br)cc12)C1CC1	NO
CC12OC(C(=O)C13CC3)C1C(=O)c3ccccc3C(=O)C12 (centres undefined)	NO
CCCCCCCCCCCCc1ccc(C(=O)/C=C/C(=O)O)cc1	NO

Task: Hello, I am checking results. What call was entered for COc1cc2cc(Oc3ccc(NC(=O)Nc4cccc(C(F)(F)F)c4)cc3)c(C)nc2cc1OCCN1CCCCC1 ?
Result: NO

Task: What do you have for Nc1cccc2c1C(=O)N(C1CCC(=O)NC1=O)C2=O (centres undefined) ?
Result: NO

Task: And what about the compound O=C1c2cc3c(cc2-c2c1c1cc(Cl)c(Cl)cc1c(=O)n2CCCn1ccnc1)OCO3 ?
Result: YES

Task: Here is the next compound: Cc1ccc(-c2c(C#N)c(N)nc(N3CCOCC3)c2C#N)o1
Result: NO

Task: Please do the same for COc1ccccc1C(=O)/C=C/c1cc2cccc(OC)c2[nH]c1=O as well.
Result: YES

Task: Now the compound CC(=O)O[C@H]1C(=O)[C@@]2(C)C([C@H](OC(=O)c3ccccc3)[C@]3(O)C[C@H](OC(=O)[C@H](O)[C@H](NC(=O)c4ccccc4)c4ccc(Cl)cc4)C(C)=C1C3(C)C)C1(OC(C)=O)CO[C@@H]1C[C@@H]2O (some centres undefined)
Result: YES

Task: Next entry: CC1(C)CC(=O)C2=C(C1)NC(SSC1=C(C#N)C(c3ccccc3)C3=C(CC(C)(C)CC3=O)N1)=C(C#N)C2c1ccccc1 (centres undefined)
Result: NO

Task: Please do the same for CCOC(=O)CCC(NC(=O)c1ccc(N=Cc2nc3cc(C(F)(F)F)ccc3nc2-c2ccccc2)cc1)C(=O)OCC (centres undefined) as well.
Result: NO

Task: Repeat with O/N=C1\CCc2cc(-c3nc(C4CCNCC4)[nH]c3-c3ccncc3)ccc21
Result: NO

Task: Field entry: COc1cc(-c2cc(C(=O)N3CCN(C(=O)c4ccccc4NCc4ccco4)CC3)nc3cc(-c4ccccc4)nn23)cc(OC)c1OC
Result: NO

The reported numbers originate from PubChem BioAssay (NCI).
